The reported measurements were obtained from ChEMBL document CHEMBL1131723.

- Test system: Staphylococcus aureus
- Method summary: In vitro antibacterial activity against Staphylococcus aureus UBMS 90-1 Tet M
- Assay type: functional
This section presents compounds with their documented MIC values.
Quantity measured: MIC (µg/mL)

[
  {
    "Compound": "CCCCCCNCC(=O)Nc1cc(N(C)C)c2c(c1O)C(=O)C1=C(O)[C@]3(O)C(O)=C(C(N)=O)C(=O)[C@@H](N(C)C)C3CC1C2 (some centres not stated)",
    "Target entity": "Staphylococcus aureus",
    "Units symbol": "µg/mL",
    "Observed": 0.25
  },
  {
    "Compound": "CN(C)c1cc(NC(=O)CN2CCCC2)c(O)c2c1CC1CC3[C@H](N(C)C)C(=O)C(C(N)=O)=C(O)[C@@]3(O)C(=O)C1=C2O (some centres not stated)",
    "Target entity": "Staphylococcus aureus",
    "Units symbol": "µg/mL",
    "Observed": 0.12
  },
  {
    "Compound": "CNCC(=O)Nc1cc(N(C)C)c2c(c1O)C(=O)C1=C(O)[C@]3(O)C(O)=C(C(N)=O)C(=O)[C@@H](N(C)C)C3CC1C2 (some centres not stated)",
    "Target entity": "Staphylococcus aureus",
    "Units symbol": "µg/mL",
    "Observed": 1
  },
  {
    "Compound": "CN(C)c1cc(NC(=O)CN2CCC2)c(O)c2c1CC1CC3[C@H](N(C)C)C(=O)C(C(N)=O)=C(O)[C@@]3(O)C(=O)C1=C2O (some centres not stated)",
    "Target entity": "Staphylococcus aureus",
    "Units symbol": "µg/mL",
    "Observed": 0.25
  },
  {
    "Compound": "CN(C)CC(=O)Nc1cc(N(C)C)c2c(c1O)C(=O)C1=C(O)[C@]3(O)C(O)=C(C(N)=O)C(=O)[C@@H](N(C)C)C3CC1C2 (some centres not stated)",
    "Target entity": "Staphylococcus aureus",
    "Units symbol": "µg/mL",
    "Observed": 0.25
  },
  {
    "Compound": "CCCCNCC(=O)Nc1cc(N(C)C)c2c(c1O)C(=O)C1=C(O)[C@]3(O)C(O)=C(C(N)=O)C(=O)[C@@H](N(C)C)C3CC1C2 (some centres not stated)",
    "Target entity": "Staphylococcus aureus",
    "Units symbol": "µg/mL",
    "Observed": 0.5
  },
  {
    "Compound": "CN(C)c1cc(NC(=O)CNC2CC2)c(O)c2c1CC1CC3[C@H](N(C)C)C(=O)C(C(N)=O)=C(O)[C@@]3(O)C(=O)C1=C2O (some centres not stated)",
    "Target entity": "Staphylococcus aureus",
    "Units symbol": "µg/mL",
    "Observed": 0.5
  }
]
